Quick list: inhibition per entry.
# target.desc: Golgi-associated PDZ and coiled-coil motif-containing protein (Homo sapiens) (UniProt Q9HD26)
# assay.overview: untagged CAL PDZ binding inhibitors, primary screen, biochemical, fluorescence polarization, HTS (AID 602252);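 also: 0% = DMSO neutral control and 100% = excess unlabeled competitor peptide PRC23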
# test.conditions: purified CAL PDZ, TMR-peptide fluorescence polarization, 1 h; at 24.9 µM; hits give high values
Among all 300,000 compounds or so, about 2,700 (0.9%) were called active. The list comes from a sample in which actives are over-represented; it also holds close analogues and randomly drawn compounds.
measured.attribute: inhibition (%)

chemical.smiles	measured.attribute	reading
CCN(CC(=O)NCc1ccc(Cl)cc1)C(=O)CSc1ccccc1	inhibition	62.6
O=C(OCC(=O)N1CCN(c2ccccc2)CC1)c1ccc([N+](=O)[O-])s1	inhibition	4.92
COc1cc(OC)cc(-c2cc3ccc(F)cc3cn2)c1	inhibition	-1.91
Cc1csc(NC(=O)C2CCN(S(=O)(=O)c3ccccc3)CC2)n1	inhibition	3.13
Cc1nc2ccc(NC(=O)c3cccc(S(=O)(=O)N4CCOCC4)c3)cc2s1	inhibition	-4.38
CCN(CC(=O)Nc1cc(Cl)ccc1C)C(=O)CSCc1ccccc1	inhibition	-0.344

----------
# target.desc: Golgi-associated PDZ and coiled-coil motif-containing protein (Homo sapiens)
# assay.overview: untagged CAL PDZ binding inhibitors, primary screen, biochemical, fluorescence polarization, HTS (AID 602252);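 also: 0% = DMSO neutral control and 100% = excess unlabeled competitor peptide PRC23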
# test.conditions: purified CAL PDZ, TMR-peptide fluorescence polarization, 1 h; at 24.9 µM; hits give high values
Among all 300,000 compounds or so, about 2,700 (0.9%) were called active. For the sample, actives were picked, then their nearest neighbours and some compounds at random.
Quick list: inhibition per entry.
measured.attribute: inhibition (%)

compound	target.desc	reading
COc1ccc(CCC(=O)Nc2ccc(Cl)c(S(=O)(=O)N3CCOCC3)c2)cc1OC	Golgi-associated PDZ and coiled-coil motif-containing protein (Homo sapiens)	-22.4
CN(C)c1ccc(CSc2ccccc2)cc1	Golgi-associated PDZ and coiled-coil motif-containing protein (Homo sapiens)	-6.85
C[C@H](O)[C@@H]1C(=O)N2CCc3ccc(N4CCOCC4)cc3[C@@H]2C[C@@H]1N(C)C(=O)C(C)(C)C	Golgi-associated PDZ and coiled-coil motif-containing protein (Homo sapiens)	-2.27
CC(C)c1nc2ccc(C(=O)O)cc2[nH]1	Golgi-associated PDZ and coiled-coil motif-containing protein (Homo sapiens)	1.18
OC(c1nc2ccc(F)cc2[nH]1)C(O)c1nc2ccc(F)cc2[nH]1 (stereo not given)	Golgi-associated PDZ and coiled-coil motif-containing protein (Homo sapiens)	37

----------
# target.desc: Golgi-associated PDZ and coiled-coil motif-containing protein (Homo sapiens) (UniProt Q9HD26)
# assay.overview: untagged CAL PDZ binding inhibitors, primary screen, biochemical, fluorescence polarization, HTS (AID 602252);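 also: 0% = DMSO neutral control and 100% = excess unlabeled competitor peptide PRC23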
# test.conditions: purified CAL PDZ, TMR-peptide fluorescence polarization, 1 h; at 24.9 µM; hits give high values
In all, about 300,000 compounds went through this assay and about 2,700 (0.9%) were called active. What follows is part of a selection rich in actives, with near analogues and random picks from the rest.
Quick list: inhibition per entry.
measured.attribute: inhibition (%)

compound	reading
O=C(O)c1ccc(NN=CC2=C(N3CCOCC3)/C(=C/c3ccccc3)CC2)cc1	-3.09
COc1ccc(C2=Nn3c(nnc3-c3ccccc3OC)SC2)cc1OC1CCCC1	-2.41
CCCCC(=O)NC(c1ccc(OC)c(OC)c1)c1ccc2cccnc2c1O (stereo not given)	-1.93
C=CC[C@H](CC(=O)N(CCO)Cc1ccccc1)C(=O)N[C@@H](COC(=O)[C@@H](CC=C)Cc1ccc(F)cc1)Cc1ccccc1	-5.7
CC(C)(C)OC(=O)N1CCC(C(=O)Nc2cccc(C(=O)NCCc3ccccc3)c2)CC1	-2.65
COc1cc(/C=C2/C(=O)ON=C2C)ccc1OCc1ccccc1F	-3.18
CCOc1ccc(NC(=O)CN(C)CC(=O)NC(C)c2ccccc2)cc1OCC (stereo not given)	39.5
COC(=O)c1ccc(/C=C/c2c(-c3ccc(OC)cc3)sc3ccccc23)cc1	0.974
CCN1CCN(CCNC(=O)c2ccc3c(c2)NC(=O)/C(=C\c2ccc(OC)c(OC)c2)S3)CC1	55.5
COc1cc(/C=C2/C(=O)ON=C2C)ccc1OCc1cccc(F)c1	40.4

Data origin, for the record: PubChem BioAssay AID602252
